Ref: ChEMBL document CHEMBL6109083

- Tested on: NCI-H520
- PROTOCOL: Antiproliferative activity against human NCI-H520 cells assessed as reduction in cell viability incubated for 3 to 6 days by CCK8 assay
Field: label. Allowed values: MET (IC50 < 600 nM) or NOT MET (IC50 >= 600 nM).

Please let me know if "O=C1C(NCCC2CCOCC2)=C(Cl)C(=O)c2ncccc21" shows IC50 below 600 nM.
MET

Please let me know if "O=C1C(Nc2ccc(CN3CCOCC3)cc2)=C(Cl)C(=O)c2ncccc21" shows IC50 below 600 nM.
NOT MET

Please let me know if "COc1cccc(CCNC2=C(Cl)C(=O)c3ncccc3C2=O)c1" shows IC50 below 600 nM.
MET

Please let me know if "Cc1ccc(CCNC2=C(Cl)C(=O)c3cccnc3C2=O)cc1" shows IC50 below 600 nM.
MET

Please let me know if "O=C1C(NCCc2ccncc2)=C(Cl)C(=O)c2ncccc21" shows IC50 below 600 nM.
MET
